These entries and their values trace back to paper PMC4114688.

Tested System: RBPMS isoform A (Homo sapiens, UniProt Q93062 1-196)
Measurement Protocol: EMSA
Measured Parameter: binding result

UACUCACUCACUCUCCACGAG (ssRNA) [UBE2V1 or SRM 21-nt wt (a)] ... binds
CCCUCACUCACCAAACACGUG (ssRNA) [UBE2V1 or SRM 21-nt wt (b)] ... binds
CACCACCACCACCACCAC (ssRNA) [(CAC)6] ... binds
GGCGGCGGCGGCGGCGGC (ssRNA) [(GGC)6] ... no binding
CAUCAUCAUCAUCAUCAU (ssRNA) [(CAU)6] ... no binding
CUCUCUCUCUCUCUCUCU (ssRNA) [(CU)9] ... no binding

Proceed to the following item.
Q: What binding result value was documented for this binder, UUUUUUUUUUUUUUUUUU (ssRNA) [U18] ?
Result: no binding
